The values you see were collected from ChEMBL document CHEMBL2331322.

# MIC annotations
# Test system: Bacillus thuringiensis
# test summary: Antimicrobial activity against Bacillus thuringiensis after 24 hrs by microdilution susceptibility test
# Assay type: functional
The response must be a number in µg/mL with no trailing unit.

# count of solved cases: 2
{"smiles repr": "CCOC(=O)c1c2[nH]c(=N)c3ccccc3c2nn1-c1ccccc1", "readout units": "µg/mL", "MIC": 25}
{"smiles repr": "COc1cc(-c2c(C#N)c(N)c3ccccc3c2C#N)cc(OC)c1OC", "readout units": "µg/mL", "MIC": 50}

Lab note: next molecule to report on.
Item `N=c1[nH]c2nn(-c3ccc(Cl)cc3)nc2c2ccccc12` was tested on Bacillus thuringiensis; the reported MIC is 25
